These entries and their values trace back to patent US20190276542A1.

molecular target: T1, CTLA4-ECD_Fc, soluble hCTLA4 comprising the extracellular domain of hCTLA4 fused to an Fc fragment (human, UniProt P16410 36-161); assay: flow cytometry; inhibition of CTLA4-ECD_Fc binding to Raji cells (hB7-1/hB7-2)
T1 construct: extracellular domain; not shown: Fc fragment
T1 sequence (P16410 36-161): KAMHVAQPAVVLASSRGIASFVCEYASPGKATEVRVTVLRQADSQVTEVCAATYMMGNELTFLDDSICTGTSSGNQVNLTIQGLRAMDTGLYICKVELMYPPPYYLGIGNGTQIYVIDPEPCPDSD
assay.endpoint: IC50 (nM)
The reply should contain only the number, in nM.

Summary for this binder, anti-hCTLA4 antibody 2F1 (antibody, human IgG1, V domains shown) VH: QVQLVESGGGVVEPGRSLRLSCAASGFTFSSYGMHWVRQAPGKGLEWVAVIWYHRSEKDYADSAKGRFTISRDNSKNTLYLQMNSLRAEDTAVYYCARAGLLGYFDYWGQGTLVTVSS VL: EIVLTQSPGTLSLSPGERATLSCRASQSINSYLAWYQQKPGQAPRPLIYGVSSRATGIPDRFSGSGSGTDFTLTISRLEPEDFAVYYCQQYGMYPFTFGPGTKVDIK : IC50 is 9.1

Summary for this binder, anti-hCTLA4 antibody 1E1 (antibody, human IgG1, V domains shown) VH: QVQLVESGGGVVEPGRSLRLSCAASGFTFSSYGMHWVRQAPGKGLEWVAVIWYNPSEKDYADSAKGRFTISRDNSKNTLYLQMNSLRAEDTAVYYCARAGLLGYFDYWGQGTLVTVSS VL: EIVLTQSPGTLSLSPGERATLSCRASQSISSYLAWYQQKPGQAPRPLIYGVSSRATGIPDRFSGSGSGTDFTLTISRLEPEDFAVYYCQQYGMSPFTFGPGTKVDIK : IC50 is 6.3

Summary for this binder, anti-hCTLA4 antibody 11F4 (antibody, human IgG1, V domains shown, unaltered form; also called Anti-CTLA4 11F4; anti-hCTLA4 #11F4) VH: QVQLVESGGGVVEPGRSLRLSCAASGFTFSSYGMHWVRQAPGKGLEWVAVIWYKPSEKDYADSAKGRFTISRDNSKNTLYLQMNSLRAEDTAVYYCARGGLLGYFDYWGQGTLVTVSS VL: EIVLTQSPGTLSLSPGERATLSCRASQSINSYLAWYQQKPGQAPRPLIYGVSSRATGIPDRFSGSGSGTDFTLTISRLEPEDFAVYYCQQYGRYPFTFGPGTKVDIK : IC50 is 7.5
